target or test system: 5-HT1
measurement notes: Radioligand binding, tritiated 5-HT, rat frontal cortex homogenate (total 5-HT1)
condition set: displacement of tritiated 5-HT
Structures can show the parent of a compound that is named as a salt.
// assign Met if IC50 falls strictly below 400 nM, else Not met (ties count as Not met)

Answered examples (7):
molecule: COc1cccc2c1C1CN(CCCCN3C(=O)CC4(CCCC4)CC3=O)CC1C2 (stereo not drawn) [Example 7, hydrochloride]
group: Met

molecule: COc1cccc2c1[C@H]1CCN(CCCCN3C(=O)c4ccccc4S3(=O)=O)C[C@@H]1C2 (relative stereo) [Example 57, hydrochloride]
group: Met

molecule: COc1c(Cl)ccc2c1C1CN(CCCCN3C(=O)CC4(CCCC4)CC3=O)CC1C2 (stereo not drawn) [Example 8, hydrochloride]
group: Not met

molecule: COc1cccc2c1C1CN(CCCCCN3C(=O)CC4(CCCC4)CC3=O)CC1C2 (stereo not drawn) [Example 28, hydrochloride]
group: Not met

molecule: Br.O=C(NCCN1CC2Cc3cccc(O)c3C2C1)c1ccc(F)cc1 (stereo not drawn) [Example 19, hydrobromide]
group: Met

molecule: O=C1CC2(CCCC2)CC(=O)N1CCCN1CC2Cc3cccc(O)c3C2C1 (stereo not drawn) [Example 27, hydrobromide]
group: Not met

molecule: O=C1CC2(CCCC2)CC(=O)N1CCCCN1CC2Cc3ccc(Cl)c(O)c3C2C1 (stereo not drawn) [Example 52, hydrobromide]
group: Not met

Moving on to the next molecule.
(Q) hey, is IC50 for COc1cccc2c1C1CN(C/C=C/CN3C(=O)CC4(CCCC4)CC3=O)CC1C2 (stereo not drawn) [Example 30, hydrochloride] lower than 400 nM or not?
(A) Not met
